Experimental parameters: 353.15 K; 20000 kPa; Liquid
Experimental endpoint: mass density (kg/m3)

| Compound | Experimental endpoint | Units of measure | Result value |
| --- | --- | --- | --- |
| CCCOC(C)=O [propyl ethanoate] | mass density | kg/m3 | 844.8 |
| CCOC(C)=O [ethyl acetate] | mass density | kg/m3 | 850.4 |
| CCCCCOC(C)=O [pentyl ethanoate] | mass density | kg/m3 | 839.7 |
| CCCCOC(C)=O [butyl ethanoate] | mass density | kg/m3 | 841.8 |

###

Experimental parameters: 338.15 K; 15000 kPa; Liquid
Experimental endpoint: mass density (kg/m3)

| Molecule | Units of measure | mass density |
| --- | --- | --- |
| CCCCOC(C)=O [butyl ethanoate] | kg/m3 | 850.1 |
| CCCOC(C)=O [propyl ethanoate] | kg/m3 | 853.9 |
| CCOC(C)=O [ethyl acetate] | kg/m3 | 863 |
| CCCCCOC(C)=O [pentyl ethanoate] | kg/m3 | 847.5 |

###

Experimental parameters: 303.15 K; 2000 kPa; Liquid
Experimental endpoint: mass density (kg/m3)

| Compound | Units of measure | mass density |
| --- | --- | --- |
| CCOC(C)=O [ethyl acetate] | kg/m3 | 889.5 |
| CCCCCOC(C)=O [pentyl ethanoate] | kg/m3 | 867.9 |
| CCCCOC(C)=O [butyl ethanoate] | kg/m3 | 872 |
| CCCOC(C)=O [propyl ethanoate] | kg/m3 | 877.7 |

###

Experimental parameters: 333.15 K; 3000 kPa; Liquid
Experimental endpoint: mass density (kg/m3)

| Compound | Experimental endpoint | Units of measure | Result value |
| --- | --- | --- | --- |
| CCCCCOC(C)=O [pentyl ethanoate] | mass density | kg/m3 | 840.8 |
| CCOC(C)=O [ethyl acetate] | mass density | kg/m3 | 854.4 |
| CCCCOC(C)=O [butyl ethanoate] | mass density | kg/m3 | 842.9 |
| CCCOC(C)=O [propyl ethanoate] | mass density | kg/m3 | 845.9 |

###

Experimental parameters: 333.15 K; 30000 kPa; Liquid
Experimental endpoint: mass density (kg/m3)

| Compound | Units of measure | mass density |
| --- | --- | --- |
| CCCCCOC(C)=O [pentyl ethanoate] | kg/m3 | 865.1 |
| CCCCOC(C)=O [butyl ethanoate] | kg/m3 | 868.6 |
| CCCOC(C)=O [propyl ethanoate] | kg/m3 | 874.3 |
| CCOC(C)=O [ethyl acetate] | kg/m3 | 885.2 |

###

Experimental parameters: 358.15 K; 1000 kPa; Liquid
Experimental endpoint: mass density (kg/m3)

| Molecule | Units of measure | mass density |
| --- | --- | --- |
| CCCCOC(C)=O [butyl ethanoate] | kg/m3 | 813.2 |
| CCCCCOC(C)=O [pentyl ethanoate] | kg/m3 | 812.2 |
| CCCOC(C)=O [propyl ethanoate] | kg/m3 | 812.9 |
| CCOC(C)=O [ethyl acetate] | kg/m3 | 818.4 |

###

Experimental parameters: 368.15 K; 20000 kPa; Liquid
Experimental endpoint: mass density (kg/m3)

| Compound | mass density [kg/m3] |
| --- | --- |
| CCCCOC(C)=O [butyl ethanoate] | 825.9 |
| CCCCCOC(C)=O [pentyl ethanoate] | 824 |
| CCOC(C)=O [ethyl acetate] | 834.3 |
| CCCOC(C)=O [propyl ethanoate] | 827.3 |
